ASSAY_DETAILS: TOR pathway RPL19A-GFP modulators, concentration series – cell-based, S. cerevisiae, flow cytometry, MLPCN hits, dose response (AID 2740);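 also: background is signal of the same compound in parental non-GFP s288c yeast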
STUDY_CONDITIONS: S. cerevisiae RPL19A-GFP strain, flow cytometry fluorescence, 3 h; at 33 µM (top of the series)
ENDPOINT: GFP fluorescence, lower = active (kMESF (background-subtracted))

COMPOUND | RECORDED_RESULT
CC(C)[C@@]1(c2ccccc2)ON(c2ccccc2C(F)(F)F)C1=O | 40.1
O=C(NC(=S)NNC(=O)c1cnccn1)c1ccc(F)cc1 | 31.9
Cc1ccc(C(=O)Oc2oc(-c3ccco3)nc2C=Nc2ccc(Cl)cc2)cc1 | 40.8
COc1ccc(C2(C)ON(c3ccccc3C(F)(F)F)C2=O)cc1 (centres undefined) | 34.3
O=C(/C=C/c1ccccc1Cl)c1ccccc(=O)c1O | 5.26
COc1ccc(/C=C/C(=O)NC(=S)NNC(=O)c2cnccn2)cc1 | 49.2
COc1ccccc1N1C(=O)c2cccc3c(C(=O)O)ccc(c23)C1=O | 44.8
CN(C)NC(=S)Nc1ccc(S(=O)(=O)N2CCCCC2)cc1 | 44.8
CC(C)(C)C(=O)NC(=S)NNC(=O)c1ccc(-c2ccccc2)cc1 | 40.7
O=C(/C=C/c1ccccc1[N+](=O)[O-])c1ccccc1Br | 44.1
CC(c1ccccc1)N1C(=O)/C(=C/c2ccncc2)SC1=S (centres undefined) | 20.6
O=[N+]([O-])c1cc(F)c2cccnc2c1O | 25.6
Cc1ccc(NC(=O)c2nc(S(=O)(=O)Cc3ccccc3)ncc2Cl)cc1 | 43
N/C(Cc1ccc(Cl)c(Cl)c1)=N\OC(=O)c1cccs1 | 40.7
CC(C)[C@]1(c2ccc(Cl)cc2)ON(c2ccccc2C(F)(F)F)C1=O | 40.6
CCCCOc1ccc(C(=O)NNC(=S)NC(=O)CC)cc1 | 43
Cc1ccc(/C=C/C(=O)c2ccc([N+](=O)[O-])o2)cc1 | 46.1
COc1ccc(N2C(=O)C(Cl)=C(NCc3ccccc3)C2=O)cc1 | 44.3
Cc1cc(C)nc(S/C=C/C(=O)c2ccccc2)n1 | 47.4
Cc1c(Br)c(=O)oc2c(Br)c(O)c(O)cc12 | 38.1
Cc1ccc2nc(/C(C#N)=C/c3ccc(O)c(O)c3)[nH]c2c1 | 43.8
Cc1nc2ccc(NC(=O)c3oc4ccc(F)cc4c3C)cc2s1 | 39
O=C1C(Cl)=C(Nc2ccccc2O)C(=O)N1CCc1ccccc1 | 42.1
O=C(NNC(=S)NC(=O)c1ccco1)c1ccc(F)cc1 | 49.8
